B1: NP_009172.2 (parent)
chain: LPALFTDLYSQEITAEEAREALP

variants of: B1; test: protein stability index of a GFP-peptide fusion (GPS, HEK-293T) (PSI 1-6); higher = more stable; conditions: c terminus: native;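 also: lentivirally expressed fusion library, cells FACS-sorted into six equal-sized GFP/DsRed ratio bins, PSI computed from sequencing read fractions per bin weighted by bin number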
endpoint_name: protein stability index
Give bare numbers.

A18H	2.42
R19C	2.93
P23Q	4.85
L22P	3.63
A21L	2.26
R19Q	2.75

For the 4 variants below, give their protein stability index values.
1. A18C
2. F5Y
3. E12D
4. L4Y

Result block:
2.91
3.72
2.99
3.47

For the 8 variants below, give their protein stability index values.
1. L8W
2. T6G
3. T6E
4. T14G
5. T6C
6. Q11R
7. A3G
8. I13M

Result block:
3.27
4.09
3.68
2.73
3.02
2.26
2.68
2.53

For the 2 variants below, give their protein stability index values.
1. S10C
2. R19L

Result block:
1. 2.16
2. 2.47

For the 4 variants below, give their protein stability index values.
1. D7L
2. Y9V
3. T6L
4. S10Q

Result block:
2.61
2.21
3.54
2.57
